Reference source for all entries: patent US7776882B2

# SYSTEM TESTED: human BACE-1 (Homo sapiens)
# Construct: purchased CEREP (contract assay) 761-B
# Sequence (P56817 46-501): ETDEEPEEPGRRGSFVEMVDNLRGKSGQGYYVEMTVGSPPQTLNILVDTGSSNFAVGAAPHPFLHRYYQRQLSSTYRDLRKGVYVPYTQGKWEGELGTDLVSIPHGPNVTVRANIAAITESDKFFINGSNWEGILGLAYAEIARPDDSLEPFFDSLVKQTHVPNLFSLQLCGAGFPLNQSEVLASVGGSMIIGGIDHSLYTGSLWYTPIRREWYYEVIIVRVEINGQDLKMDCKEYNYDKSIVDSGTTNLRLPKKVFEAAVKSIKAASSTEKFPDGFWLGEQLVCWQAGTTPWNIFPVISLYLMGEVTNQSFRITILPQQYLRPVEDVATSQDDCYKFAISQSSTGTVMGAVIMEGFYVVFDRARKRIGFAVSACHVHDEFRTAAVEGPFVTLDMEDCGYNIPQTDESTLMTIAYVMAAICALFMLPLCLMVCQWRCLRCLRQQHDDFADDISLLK
# TEST DETAILS: In Vitro BACE Assay run by CEREP (Example 14)
# Format: biochemical
# RECORDED CONDITIONS: 1 μM compound; recombinant enzyme, 60 min at 37° C., pH 4.5
MEASUREMENT LABEL: % Inhibition 1 μM (%)

// below: answered compounds
COMPOUND | % Inhibition 1 μM / %
Nc1nc2ccc(Oc3ccccc3)cc2cc1C(CCC(=O)N(CCO)C1CCCCC1)C1CCOCC1 (stereo not shown) | 87
CN(CCC(c1cc2cc(Oc3ccccc3)ccc2nc1N)C1CCCCC1)C1CCCCC1 (stereo not shown) | 15
CN(CC1CCCCC1)C(=O)CCC(c1cc2cc(Oc3ccccc3)ccc2nc1N)C1CCCCC1 (stereo not shown) | 54
CC(C)(C)CN(Cc1ncc[nH]1)C(=O)CCC(c1cc2cc(Oc3ccccc3)ccc2nc1N)C1CCOCC1 (stereo not shown) | 88
Nc1nc2ccc(Oc3ccccc3)cc2cc1C(CCC(=O)NC1CN2CCC1CC2)C1CCOCC1 (mixture of isomers) | 6

A: C=CCCC(c1cc2cc(Oc3ccccc3)ccc2nc1N)C1CCCCC1 (stereo not shown)
B: CC(C)(C)CCN(Cc1ncc[nH]1)C(=O)CCC(c1cc2cc(Oc3ccccc3)ccc2nc1N)C1CCOCC1 (stereo not shown)
Endpoint returns whichever of A and B has the numerically higher % Inhibition 1 μM. Give the chosen item's label as your response. B
(B: 93%, A: −3%)
